Measured ratio of MFI, pulsed to unpulsed, listed per entry.
experimentalTarget: HLA-A2 on T2 cells pulsed with BCL9L: 1351-1359 peptide (human)
testDescription: flow cytometry, 10 ug/ml, pulsed T2 cells
Numbers only here, please. The scale is ratio.

| binder | ratio of MFI, pulsed to unpulsed [ratio] |
| --- | --- |
| mAb28037P2 (antibody, human IgG4 S228P, kappa, V domains shown) VH: QVQLQESGPGLVKPSETLSLTCTVSGDSISVYYWTWIRQPPGKGLEWIGYVHYTGYTNYNPSLKSRVTMSVDTAKKQISLKVRSVTAADTAVYYCARTIPAAAHYYHGTDVWGPGTTVTVSS VL: DIQMTQSPSSLSASVGDRVTITCQANQDIRKYLNWYQQKSGKAPTLLIYEASNLETGAPSTFSGSGSGTEFTFTISSLRPEDIATYYCQQYESLPLTFGGGTKVEIKR | 52.3 |
| mAb29814P (antibody, human IgG4 S228P, kappa, V domains shown) VH: QVQLVESGGGVVQPGRSLRLSCVASGFTFSSYGMHWVRQAPGKGLEWVAVIWYVGSNKYYGDSVKGRFTISRDNSKNTLYLQMNSLRAEDTAVYYCARDLIADRPGYYYNGMDVWGQGTTVTVSS VL: EIVMTQSPVTLFVSPGERATLSCRASQSVNTNLAWYQQQPGQAPRLLIHGASTRPTGVPARFSGSGSGTEFTLIISSLQSEDFAVYYCQQYNNWPPWTFGQGTKVEIKR | 150 |
| mAb24959N (antibody, human IgG4 S228P, kappa, V domains shown) VH: QLQLLESGPGLVKPSETLSLICTVSGGSIRGSSYYWGWIRQPPEKGLEWIGSIYSSGSTYYNPSLKSRVTISADTSKNQFSLKLSSVTAADTAVYYCARHGGITAVQLEFDPWGQGTLVTVSS VL: DIQMTQSPSSLSASVGDRVTITCQASQDISNYLKWYQQKPGKAPKILIHDASNLEIGVPSRFSGSGAGTDFIFTISSLQPEDIGTYYCQQYDNLPITFGQGTRLEIKR | 80.7 |

Q) Entry mAb28128P (antibody, human IgG4 S228P, kappa, V domains shown) VH: EVQLVESGGGVVQPGGSLRLSCAASGFIFDDYAMHWVRQVPGKGLEWISLSSGGGGGTYYADPVKGRFTISRDNSKNSLHLQMNSLRAEDTASYYCAKDMVFGVVTPDFFFAMDVWGQGTTVTVSS VL: DIQMTQSPSSLSASVGDRVTITCRASQSISTYLNWYQQKPGKAPKLLIYGASSLQRGVPSRFSGSGSGTDFTLTISSLQPEDFATYYCQQTYSTPPITFGQGTRLEIKR has what ratio of MFI, pulsed to unpulsed?
A) 3
